Molecular target: T1, recombinant hIL-18Rα extracellular domain (human, UniProt Q13478 22-329, biotin label (selection) or fluorescent probe (single-clone FACS), sites not given)
T1 construct: extracellular domain; also called hIL-18Rα ECD; hIL-18Rα-ECD
T1 sequence (looked up): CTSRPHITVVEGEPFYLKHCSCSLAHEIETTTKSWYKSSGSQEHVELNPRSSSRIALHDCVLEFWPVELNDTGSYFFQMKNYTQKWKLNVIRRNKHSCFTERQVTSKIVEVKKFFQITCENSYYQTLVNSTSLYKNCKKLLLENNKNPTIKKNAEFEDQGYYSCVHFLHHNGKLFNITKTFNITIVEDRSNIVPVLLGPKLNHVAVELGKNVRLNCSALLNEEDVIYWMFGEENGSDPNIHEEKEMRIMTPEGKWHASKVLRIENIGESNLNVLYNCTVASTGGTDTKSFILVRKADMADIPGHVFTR
Experiment: single-clone FACS, yeast display, 10 nM labelled hIL-18Rα ECD
Experimental: Following the screens described in Example 2, single clone FACS analysis was performed to verify the binding of selected yeast cell surface-expressed IL-18 variant polypeptides from Round 4 and Round 5 to 10 nM hIL-18Rα-ECD. Briefly, each yeast clone at the same density was incubated with 10 nM IL-18Rα-ECD labeled by fluorescent probe, respectively, followed by washing step. Then the ratio of fluorescent positive IL-18Rα ECD binding yeasts in the population of each clone were analyzed.
experimental endpoint: % of fluorescence positive cells (%)

1) IL-18 variant polypeptide M24 (ligand) YFPKLRSKLSVIRNLNDQVLFIDQGNRPLFEDMTDSDCRDNAPRTIFIISMYKYSTSRGMAVTISVKCEKISTLSCENKIISFKEMNPPDNIKDTKSDIIFFQRSVPGHDNKMQFESSSYEGYFLACEKERDLFKLILKKEDELGDRSIMFTVQNED :: 1.36
2) SEQ ID NO 90 (ligand) YFPKLRSKLSVIRNLNDQVLFIDQGNRPLFEDMTDSDCRDNAPRTIFIISMYKSSLKRGMAVTISVKCEKISTLSCENKIISFKEMNPPDTIKDTKSDIIFFQSSVPGHDNKMQFESSSYEGYFLACEKERDLFKLILKKEDELGDRSIMFTVQNED :: 5.15
3) SEQ ID NO 109 (ligand) YFKKLPSKLSVIRNLNDQVLFIDQGNRPLFEDMTDSDCRDNAPRTIFIISMYKLSSERGMAVTISVKCEKISTLSCENKIISFKEMNPPDNIKDTKSDIIFFQRSVPGHDNKMQFESSSYEGYFLACEKERDLFKLILKKEDELGDRSIMFTVQNED :: 0.98
4) IL-18 variant polypeptide M34 (ligand) YFPKLRSKLSVIRNLNDQVLFIDQGNRPLFEDMTDSDCRDNAPRTIFIISMYKHSRNRGMAVTISVKCEKISTLSCENKIISFKEMNPPDVIKDTKSDIIFFQESVPGHDNKMQFESSSYEGYFLACEKERDLFKLILKKEDELGDRSIMFTVQNED :: 87.5
5) SEQ ID NO 93 (ligand) YFGKLPSKLSVIRNLNDQVLFIDQGNRPLFEDMTDSDCRDNAPRTIFIISMYKLSNRRGMAVTISVKCEKISTLSCENKIISFKEMNPPDGIKDTKSDIIFFQRSVPGHDNKMQFESSSYEGYFLACEKERDLFKLILKKEDELGDRSIMFTVQNED :: 4.48
6) SEQ ID NO 14 (ligand) YFPKLRSKLSVIRNLNDQVLFIDQGNRPLFEDMTDSDCRDNAPRTIFIISMYKYSTARGMAVTISVKCEKISTLSCENKIISFKEMNPPDVIKDTKSDIIFFQHSVPGHDNKMQFESSSYEGYFLACEKERDLFKLILKKEDELGDRSIMFTVQNED :: 93.2
7) IL-18 variant polypeptide M7 (ligand) YFPKLRSKLSVIRNLNDQVLFIDQGNRPLFEDMTDSDCRDNAPRTIFIISMYKHSTARGMAVTISVKCEKISTLSCENKIISFKEMNPPDAIKDTKSDIIFFQRSVPGHDNKMQFESSSYEGYFLACEKERDLFKLILKKEDELGDRSIMFTVQNED :: 93.8

All values here come from patent US20260092093A1.
